- SYSTEM TESTED: full-length beta-Catenin (Uniprot ID P35222) (Homo sapiens (Human)) (UniProt P35222)
- Sequence (P35222 2-781 limits assumed): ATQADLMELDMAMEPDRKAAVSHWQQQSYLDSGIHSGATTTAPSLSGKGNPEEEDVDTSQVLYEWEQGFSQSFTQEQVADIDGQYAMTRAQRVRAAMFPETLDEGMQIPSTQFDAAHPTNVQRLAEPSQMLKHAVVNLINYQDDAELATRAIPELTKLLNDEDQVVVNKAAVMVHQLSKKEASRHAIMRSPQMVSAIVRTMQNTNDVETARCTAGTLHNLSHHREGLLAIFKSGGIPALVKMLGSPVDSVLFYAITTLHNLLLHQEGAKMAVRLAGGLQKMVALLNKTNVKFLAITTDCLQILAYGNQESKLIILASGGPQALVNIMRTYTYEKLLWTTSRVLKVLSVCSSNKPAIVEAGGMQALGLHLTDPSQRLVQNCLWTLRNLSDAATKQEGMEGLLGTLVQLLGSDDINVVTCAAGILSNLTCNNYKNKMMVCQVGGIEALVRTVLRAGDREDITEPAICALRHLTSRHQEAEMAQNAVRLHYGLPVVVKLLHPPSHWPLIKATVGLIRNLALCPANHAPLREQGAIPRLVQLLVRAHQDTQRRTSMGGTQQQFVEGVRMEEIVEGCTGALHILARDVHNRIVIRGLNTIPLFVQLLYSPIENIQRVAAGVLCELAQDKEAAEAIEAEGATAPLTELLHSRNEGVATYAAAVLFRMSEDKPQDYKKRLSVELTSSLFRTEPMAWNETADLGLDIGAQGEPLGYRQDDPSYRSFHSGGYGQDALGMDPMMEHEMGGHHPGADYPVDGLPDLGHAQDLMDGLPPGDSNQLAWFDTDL
- EXPERIMENT: fluorescence polarization competition, peptide titrated against full-length beta-catenin + 5FAM-TCF4(10-53)
pEC50: −log10 of the molar value. Starred links: 1 amine or outer side, 2 acyl side, 3 side chain; linkers in the order of their positions; H or OH if unused. Positions of bridges follow the written chain, without caps; N, C: chain ends. Non-standard residues stand in square brackets, D forms with d. Primed or numbered codes have the meaning given here. PyrS2″ = (S)-3-amino-1-((pent-4-en-1-yloxy)carbonyl)pyrrolidine-3-carboxylic acid (stapling residue), C=CCCCOC(=O)N1CC[C@@](N[*:1])(C(=O)[*:2])C1; B5(4) = 2,2-bis(4-pentenyl)glycine = 2-amino-2-(pent-4-en-1-yl)hept-6-enoic acid (stitching residue), C=CCCCC(CCCC=C)(N[*:1])C(=O)[*:2]; B5(3) = 2,2-bis(4-pentenyl)glycine (stitching residue), C=CCCCC(CCCC=C)(N[*:1])C(=O)[*:2]; B5 = 2-amino-2-(pent-4-en-1-yl)hept-6-enoic acid, C=CCCCC(CCCC=C)(N[*:1])C(=O)[*:2]; Bta = N[C@@H](Cc1csc2ccccc12)C(=O)O; αAllylPro = C=CC[C@@]1(C(=O)O)CCCN1; tBuAla = CC(C)(C)C[C@H](N)C(=O)O; 3Thi = N[C@@H](Cc1ccsc1)C(=O)O
MEASURED QUANTITY: pEC50

# annotated cases, reported pEC50 shown
> print(dat)
                                     binder  measured.quantity  reported.value
1  Ac-[αAllylPro]D[tBuAla][B5(3)]DDAAFT[PyrS2″][3Thi][Bta]Q-NH2 (staple 1-4, 4-11) [I-809]              pEC50            8.30
2  Ac-[αAllylPro]D[tBuAla][B5]DDAAFN[PyrS2″][3Thi][Bta]S-NH2 (staple 1-4, 4-11) [I-815]              pEC50            8.30
3  Ac-[αAllylPro]D[tBuAla][B5]DDAAFN[PyrS2″][3Thi][Bta][dH]-NH2 (staple 1-4, 4-11) [I-813]              pEC50            8.15

I = Ac-[αAllylPro]D[tBuAla][B5]DDAAFN[PyrS2″][3Thi][Bta][dT]-NH2 (staple 1-4, 4-11) [I-817]
II = Ac-[αAllylPro]D[tBuAla][B5(4)]DDAAFT[PyrS2″][3Thi][Bta]H-NH2 (staple 1-4, 4-11) [I-810]
Enquiry: // task: argmin of pEC50 over [ I , II ] Indicate which entry you chose by stating its label.
Return: I
(I: 8.00, II: 8.22)
